Tested on: Fibroblast
Experiment: Multiplex assay against human fibroblast
Type: toxicity, cell-based
Conditions: 48 h, 10 µM, compound concentration 10 uM, replicate 1
The following molecules are listed with their measured Population Pyknosed Nuclei (%) values.

- Molecule: "CC(C)(C)c1cc(NC(=O)Nc2ccc(-c3cn4c(n3)sc3cc(OCCN5CCOCC5)ccc34)cc2)no1 [QUIZARTINIB]"
  Assay Target: "Fibroblast"
  Unit Text: "%"
  Population Pyknosed Nuclei (%): 13
- Molecule: "Cc1c(CC(=O)O)c2cccnc2n1Cc1ccc(S(C)(=O)=O)cc1C(F)(F)F [FEVIPIPRANT]"
  Assay Target: "Fibroblast"
  Unit Text: "%"
  Population Pyknosed Nuclei (%): 14
- Molecule: "CCCCC(=O)N(Cc1ccc(-c2ccccc2-c2nnn[nH]2)cc1)[C@H](C(=O)O)C(C)C"
  Assay Target: "Fibroblast"
  Unit Text: "%"
  Population Pyknosed Nuclei (%): 15
- Molecule: "COc1cccc2c1c(NS(=O)(=O)c1ccc(Cl)s1)nn2Cc1cccc(CNC(=O)C(C)(C)O)c1"
  Assay Target: "Fibroblast"
  Unit Text: "%"
  Population Pyknosed Nuclei (%): 12
- Molecule: "COc1ccccc1N1CCN(C[C@@H](C(=O)NC(C)(C)C)c2ccccc2)CC1.Cl.Cl"
  Assay Target: "Fibroblast"
  Unit Text: "%"
  Population Pyknosed Nuclei (%): 18
- Molecule: "Cc1cnc(-c2cc(N3CCN(C(=O)CCS(C)(=O)=O)CC3)ncc2Cl)c(C)c1"
  Assay Target: "Fibroblast"
  Unit Text: "%"
  Population Pyknosed Nuclei (%): 8
- Molecule: "N#Cc1c(Oc2cccc(OS(=O)(=O)CCCC(F)(F)F)c2)cccc1C(F)(F)F"
  Assay Target: "Fibroblast"
  Unit Text: "%"
  Population Pyknosed Nuclei (%): 24
- Molecule: "CN[C@@H](C)C(=O)N[C@H](C(=O)N1CCC[C@H]1C(=O)Nc1snnc1-c1ccccc1)C1CCCCC1 [GDC-0152]"
  Assay Target: "Fibroblast"
  Unit Text: "%"
  Population Pyknosed Nuclei (%): 31

----------
System: Fibroblast
Assay: Multiplex assay against human fibroblast
Format: toxicity, cell-based
Settings: 12 h, 1 µM, compound concentration 1 uM, replicate 2

- Compound: "N#Cc1cc(F)cc(-c2nc(-c3ccc(F)cn3)no2)c1"
  Assay Target: "Fibroblast"
  Unit Text: "%"
  Population Mitotic Cells (%): 61
- Compound: "Cl.N=C(N)NC(=O)Cc1c(Cl)cccc1Cl [GUANFACINE HYDROCHLORIDE]"
  Assay Target: "Fibroblast"
  Unit Text: "%"
  Population Mitotic Cells (%): 71
- Compound: "Cc1onc(-c2ccccc2Cl)c1C(=O)N(C)c1ccc(Cl)cc1"
  Assay Target: "Fibroblast"
  Unit Text: "%"
  Population Mitotic Cells (%): 65
- Compound: "N#Cc1c(Oc2cccc(OS(=O)(=O)CCCC(F)(F)F)c2)cccc1C(F)(F)F"
  Assay Target: "Fibroblast"
  Unit Text: "%"
  Population Mitotic Cells (%): 61
- Compound: "Cl.NCCc1ccc(O)c(O)c1 [DOPAMINE HYDROCHLORIDE]"
  Assay Target: "Fibroblast"
  Unit Text: "%"
  Population Mitotic Cells (%): 55

----------
Test system: U2OS
Experiment: Multiplex assay against U2OS
Type: toxicity, cell-based
Conditions: human, 24 h, 10 µM, compound concentration 10 uM, replicate 2
The following molecules are listed with their measured Population Mitochondria Different-Phenotype (%) values.
Readout Label: Population Mitochondria Different-Phenotype (%)

- Molecule: "Cc1cccc(NC(=O)CN2CCC(c3ccccn3)CC2)c1.Cl.Cl"
  Unit Text: "%"
  Result Number: 5
- Molecule: "O=C(NCCN1CCC(n2c(=O)[nH]c3cc(Cl)ccc32)CC1)c1ccc(F)cc1 [HALOPEMIDE]"
  Unit Text: "%"
  Result Number: 23
- Molecule: "CC(C)(C)c1cc(NC(=O)Nc2ccc(-c3cn4c(n3)sc3cc(OCCN5CCOCC5)ccc34)cc2)no1"
  Unit Text: "%"
  Result Number: 32
- Molecule: "CCCCC(=O)N(Cc1ccc(-c2ccccc2-c2nnn[nH]2)cc1)[C@H](C(=O)O)C(C)C"
  Unit Text: "%"
  Result Number: 8

----------
Test system: HEK-293T
Experiment: Multiplex assay against HEK293T
Format: toxicity, cell-based
Conditions: human, 12 h, 1 µM, compound concentration 1 uM, replicate 2
The following compounds are listed with their measured Population Fragmented Nuclei (%) values.

- Compound: "N#Cc1c(Oc2cccc(OS(=O)(=O)CCCC(F)(F)F)c2)cccc1C(F)(F)F"
  Unit Text: "%"
  Population Fragmented Nuclei (%): 6
- Compound: "CCCCCC(O)/C=C/[C@H]1C(=O)CC(O)C1C/C=C\\CCCC(=O)O (some centres undefined)"
  Unit Text: "%"
  Population Fragmented Nuclei (%): 7
- Compound: "CCCCC1=NC2(CCCC2)C(=O)N1Cc1ccc(-c2ccccc2-c2nnn[nH]2)cc1"
  Unit Text: "%"
  Population Fragmented Nuclei (%): 8
- Compound: "Cl.NCCc1ccc(O)c(O)c1 [DOPAMINE HYDROCHLORIDE]"
  Unit Text: "%"
  Population Fragmented Nuclei (%): 7
- Compound: "Br.CS(=O)(=O)Nc1c(O)ccc2c1CCCC2C1=NCCN1 (centres undefined)"
  Unit Text: "%"
  Population Fragmented Nuclei (%): 5
- Compound: "Cc1noc(-c2ccc(-c3ccc(CC(=O)O)cc3)cc2)c1NC(=O)O[C@H](C)c1ccccc1Cl"
  Unit Text: "%"
  Population Fragmented Nuclei (%): 4
- Compound: "Cc1c(CC(=O)O)c2cccnc2n1Cc1ccc(S(C)(=O)=O)cc1C(F)(F)F"
  Unit Text: "%"
  Population Fragmented Nuclei (%): 7
- Compound: "CC(C)COc1ccc(CNC(=O)N(Cc2ccc(F)cc2)C2CCN(C)CC2)cc1"
  Unit Text: "%"
  Population Fragmented Nuclei (%): 7
- Compound: "CCCCC(=O)N(Cc1ccc(-c2ccccc2-c2nnn[nH]2)cc1)[C@H](C(=O)O)C(C)C"
  Unit Text: "%"
  Population Fragmented Nuclei (%): 6

----------
The following compounds are listed with their measured Population Tubulin-Different-Phenotype (%) values.
System: HEK-293T
Test: Multiplex assay against HEK293T
Type: toxicity, cell-based
Details: human, 24 h, 10 µM, compound concentration 10 uM, replicate 1
Readout Label: Population Tubulin-Different-Phenotype (%)

- Smiles Repr: "CCCCC(=O)N(Cc1ccc(-c2ccccc2-c2nnn[nH]2)cc1)[C@H](C(=O)O)C(C)C"
  Result Number: 11
- Smiles Repr: "CC(C)(C)c1cc(NC(=O)Nc2ccc(-c3cn4c(n3)sc3cc(OCCN5CCOCC5)ccc34)cc2)no1"
  Result Number: 57
- Smiles Repr: "Cc1cnc(-c2cc(N3CCN(C(=O)CCS(C)(=O)=O)CC3)ncc2Cl)c(C)c1"
  Result Number: 31
- Smiles Repr: "CN1CCN(c2cc(-c3ccccc3)nc(N)n2)CC1"
  Result Number: 19
- Smiles Repr: "CC[C@@H](C)Nc1nc(C)nc2c(-c3ccc(OC)nc3C)c(C)nn12"
  Result Number: 52
- Smiles Repr: "CC(C)c1noc(N2CCC(COc3ccc(-c4ccc(S(C)(=O)=O)cc4)nc3)CC2)n1"
  Result Number: 49
- Smiles Repr: "CN[C@@H](C)C(=O)N[C@H](C(=O)N1CCC[C@H]1C(=O)Nc1snnc1-c1ccccc1)C1CCCCC1"
  Result Number: 69
- Smiles Repr: "Cc1c(CC(=O)O)c2cccnc2n1Cc1ccc(S(C)(=O)=O)cc1C(F)(F)F"
  Result Number: 20
- Smiles Repr: "NCCc1cn(S(=O)(=O)c2c(Cl)nc3sccn23)c2ccccc12.O=C(O)C(=O)O"
  Result Number: 44

----------
The following compounds are listed with their measured Total Cell Count values.
Test system: Fibroblast
Experiment: Multiplex assay against human fibroblast
Format: toxicity, cell-based
Conditions: 48 h, 1 µM, compound concentration 1 uM, replicate 2

- Compound: "Cc1cnc(-c2cc(N3CCN(C(=O)CCS(C)(=O)=O)CC3)ncc2Cl)c(C)c1"
  Assay Target: "Fibroblast"
  Total Cell Count: 92
- Compound: "CC(C)(C)c1cc(NC(=O)Nc2ccc(-c3cn4c(n3)sc3cc(OCCN5CCOCC5)ccc34)cc2)no1 [QUIZARTINIB]"
  Assay Target: "Fibroblast"
  Total Cell Count: 158
- Compound: "Cc1noc(-c2ccc(-c3ccc(CC(=O)O)cc3)cc2)c1NC(=O)O[C@H](C)c1ccccc1Cl"
  Assay Target: "Fibroblast"
  Total Cell Count: 171
- Compound: "CN[C@@H](C)C(=O)N[C@H](C(=O)N1CCC[C@H]1C(=O)Nc1snnc1-c1ccccc1)C1CCCCC1 [GDC-0152]"
  Assay Target: "Fibroblast"
  Total Cell Count: 159
- Compound: "CN1CCN(c2cc(-c3ccccc3)nc(N)n2)CC1"
  Assay Target: "Fibroblast"
  Total Cell Count: 101
- Compound: "CC[C@@H](C)Nc1nc(C)nc2c(-c3ccc(OC)nc3C)c(C)nn12 [PEXACERFONT]"
  Assay Target: "Fibroblast"
  Total Cell Count: 113
- Compound: "N#Cc1cc(F)cc(-c2nc(-c3ccc(F)cn3)no2)c1"
  Assay Target: "Fibroblast"
  Total Cell Count: 85
- Compound: "CCCCC1=NC2(CCCC2)C(=O)N1Cc1ccc(-c2ccccc2-c2nnn[nH]2)cc1 [IRBESARTAN]"
  Assay Target: "Fibroblast"
  Total Cell Count: 178
- Compound: "CCCCCC(O)/C=C/[C@H]1C(=O)CC(O)C1C/C=C\\CCCC(=O)O (some centres undefined)"
  Assay Target: "Fibroblast"
  Total Cell Count: 186
